- system.tested: mushroom tyrosinase (Agaricus bisporus, UniProt C7FF04)
- Sequence (G1K3P4 entry or part of it): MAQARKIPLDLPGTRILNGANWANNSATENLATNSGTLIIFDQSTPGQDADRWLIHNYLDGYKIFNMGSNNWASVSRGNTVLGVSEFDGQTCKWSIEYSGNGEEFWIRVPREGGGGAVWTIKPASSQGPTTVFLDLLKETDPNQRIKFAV
- Sequence (C7FF04 2-392): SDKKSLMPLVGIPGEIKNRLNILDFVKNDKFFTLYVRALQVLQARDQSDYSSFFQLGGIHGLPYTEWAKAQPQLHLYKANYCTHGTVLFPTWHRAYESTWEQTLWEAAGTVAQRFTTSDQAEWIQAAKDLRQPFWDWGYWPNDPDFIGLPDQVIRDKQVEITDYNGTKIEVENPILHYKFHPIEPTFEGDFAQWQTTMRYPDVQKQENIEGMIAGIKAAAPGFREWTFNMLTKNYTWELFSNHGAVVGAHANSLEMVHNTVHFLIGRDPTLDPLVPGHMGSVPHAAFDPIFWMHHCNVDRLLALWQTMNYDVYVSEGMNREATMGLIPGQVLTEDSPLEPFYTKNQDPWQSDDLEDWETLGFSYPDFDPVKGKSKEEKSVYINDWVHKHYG
- test.method.notes: Mushroom tyrosinase inhibitory assay (o-diphenolase activity, L-DOPA as substrate);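 also: enzyme and test sample preincubated 10 min at 25 °C in pH 6.8 phosphate buffer, 50% DMSO vehicle as control, enzyme-free mixture as blank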
- Format: biochemical
- test.conditions: 300 μM; L-DOPA substrate; read-out: Mushroom Tyrosinase Inhibition % Inhibition (at 300 μM)
reported.property: inhibition at 300 µM (%)
Could you give me the number in %? Just the number is fine.

{"compound": "COc1ccc(C2COc3cc(O)ccc3C2=O)c(OC)c1OC [Compound 15, (3R,S)-3′-O-Methylviolanone]", "inhibition at 300 µM [%]": 0}
{"compound": "COc1ccc(-c2coc3cc(O)cc(O)c3c2=O)c(OC)c1O [Compound 7, Khrinone C]", "inhibition at 300 µM [%]": 2}
{"compound": "COc1ccc(-c2coc3cc(O)ccc3c2=O)cc1 [Compound 1, Formononetin]", "inhibition at 300 µM [%]": 10}

What does the data say about its inhibition at 300 µM? Entry: COc1cc2c(cc1C1COc3cc(O)ccc3C1=O)OCO2 (stereo not shown) [Compound 11, Onogenin]
0

====

- test.method.notes: Cell viability assay (PrestoBlue resazurin);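 also: mouse B16-F10 melanoma cells exposed to test samples for 72 h, with viability read as fluorescence of resorufin formed when living cells reduce PrestoBlue resazurin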
- Format: cell-based, Mus musculus (mouse)
- test.conditions: mouse, B16-F10 melanoma cells, 30 μM; 72 h; relative to control; read-out: % Cell Viability
Below, each entry is listed with its recorded viability at 72 h, 30 µM.
Reply numerically in %, unit not repeated.

Solved entries:
{"compound": "COc1c(O)cc2occ(-c3ccc(O)cc3)c(=O)c2c1O", "viability at 72 h, 30 µM / %": 119}
{"compound": "O=C1C[C@@H](c2ccc(O)cc2)Oc2cc(O)cc(O)c21", "viability at 72 h, 30 µM / %": 98.1}
{"compound": "COc1ccc([C@@H]2COc3cc(O)ccc3C2=O)cc1O", "viability at 72 h, 30 µM / %": 96.5}
{"compound": "O=c1cc(CO)occ1O [Kojic acid, reference compound]", "viability at 72 h, 30 µM / %": 99.6}
{"compound": "COc1ccc([C@@H]2COc3cc(O)ccc3C2)c(O)c1", "viability at 72 h, 30 µM / %": 120}
{"compound": "COc1ccc([C@@H]2COc3cc(O)ccc3C2)c(OC)c1O [Compound 20, (3R)(+)-Mucronulatol]", "viability at 72 h, 30 µM / %": 102}

What measured viability at 72 h, 30 µM goes with COc1ccc(-c2coc3cc(O)cc(O)c3c2=O)c(OC)c1O ?
93.4

Next compound: COc1ccc(C2COc3c(ccc(O)c3OC)C2)c(OC)c1O (stereo not drawn)
94.4

Also check COc1cc(OC)c(C2COc3cc(O)ccc3C2=O)cc1O (stereo not drawn)
99.7

====

- System: B16-F10 melanoma cells
- test.method.notes: Total melanin content assay
- Assay type: cell-based, Mus musculus (mouse)
- test.conditions: Mus musculus, B16-F10; 15 μM; 72 h; relative to control; read-out: % Melanin Content
reported.property: activity at 15 µM (%)
Value expressed in %; do not type the unit.

Answered examples (3):
{"compound": "COc1ccc(C2COc3cc(O)ccc3C2=O)c(O)c1OC (stereo not shown)", "system.tested": "B16-F10 melanoma cells", "activity at 15 µM (%)": 102}
{"compound": "COc1ccc([C@@H]2COc3cc(O)ccc3C2)c(OC)c1O [Compound 20, (3R)(+)-Mucronulatol]", "system.tested": "B16-F10 melanoma cells", "activity at 15 µM (%)": 179}
{"compound": "COc1cc2c(cc1O)[C@@H]1COc3cc(O)ccc3[C@@H]1O2", "system.tested": "B16-F10 melanoma cells", "activity at 15 µM (%)": 41.9}

Proceeding to the next compound to report its activity at 15 µM.
What value of activity at 15 µM has been reported for the following compound? COc1ccc(C2COc3c(ccc(O)c3OC)C2)c(OC)c1O (stereo not shown)
301
